Molecular target: Rat MAGL (rMAGL) (Rattus norvegicus)
Construct: made in house; host or cells: E. coli
Sequence (Q8R431 whole entry): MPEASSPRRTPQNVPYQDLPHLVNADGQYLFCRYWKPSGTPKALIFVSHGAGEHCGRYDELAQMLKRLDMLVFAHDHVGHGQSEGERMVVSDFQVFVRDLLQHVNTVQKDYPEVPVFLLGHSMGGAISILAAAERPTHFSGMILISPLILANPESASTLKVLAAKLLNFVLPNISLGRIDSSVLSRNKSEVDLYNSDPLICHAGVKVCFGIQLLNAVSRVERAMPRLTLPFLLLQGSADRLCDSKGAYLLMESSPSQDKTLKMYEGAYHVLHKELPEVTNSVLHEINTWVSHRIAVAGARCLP
Assay: Fluorescent assay protocol for rMAGL
Assay type: biochemical
Details: recombinant rat MAGL, procedure as for hMAGL; read-out: IC50 rMAGL
PARAMETER MEASURED: IC50

O=C(Oc1cccc(N2CCS(=O)(=O)CC2)c1)N1CCN(Cc2cccc(Oc3ccccc3)c2)CC1	10 to 100 nM
COc1cccc(OC(=O)N2CC(OCc3ccc(Br)cc3)C2)c1	> 1000 nM
N#Cc1cccc(OC(=O)N2CCC(=C(c3ccccc3)c3ccccc3)CC2)c1	> 1000 nM

* * *

In this section, each of the molecules is paired with its reported pIC50.
Biological target: ΔTM rat FAAH (Rattus norvegicus, UniProt P97612)
Construct: Preparation of Transmembrane Domain-Deleted Rat FAAH (ΔTM rFAAH)
Sequence (P97612 30-579 limits assumed, stated change not applied): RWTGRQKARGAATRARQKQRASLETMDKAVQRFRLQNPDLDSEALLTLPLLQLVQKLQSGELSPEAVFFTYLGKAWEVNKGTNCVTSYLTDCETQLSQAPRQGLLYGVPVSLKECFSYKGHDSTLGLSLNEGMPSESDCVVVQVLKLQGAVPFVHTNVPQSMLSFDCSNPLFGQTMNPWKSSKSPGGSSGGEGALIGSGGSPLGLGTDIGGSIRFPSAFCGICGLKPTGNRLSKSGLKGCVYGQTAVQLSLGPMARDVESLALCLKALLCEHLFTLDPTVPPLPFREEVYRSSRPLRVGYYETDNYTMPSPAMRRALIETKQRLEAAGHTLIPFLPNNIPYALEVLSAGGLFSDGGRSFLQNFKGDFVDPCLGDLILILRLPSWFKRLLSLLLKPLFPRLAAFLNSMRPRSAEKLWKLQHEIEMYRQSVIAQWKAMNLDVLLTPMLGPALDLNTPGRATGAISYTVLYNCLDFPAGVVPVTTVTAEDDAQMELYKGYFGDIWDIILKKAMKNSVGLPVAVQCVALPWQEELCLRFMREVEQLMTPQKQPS
Experiment: Fluorescent assay protocol for ΔTM rat FAAH (AAMCA substrate)
Details: 15 min preincubation, read-out: IC50 rFAAH
pIC50: −log10 of the molar value.
PARAMETER MEASURED: pIC50

C[C@@H]1CN(C(=O)Nc2cccc(-c3cccc(C(N)=O)c3)c2)CCN1Cc1ccc2ccccc2n1	6.00 to 6.96
Cc1ccc(S(=O)(=O)N2CCN(C(=O)Oc3ccc(Br)cc3)CC2)cc1	< 6.00
NC(=O)c1cccc(-c2cccc(NC(=O)N3CCN(Cc4ccc5ccccc5n4)CC3)c2)c1	7.00 to 8.00
N#Cc1cccc(-c2cncc(NC(=O)N3CCC(c4ccccc4)CC3)c2)c1	< 6.00
O=C(Oc1c(F)cccc1F)N1CCC(S(=O)(=O)c2ccc(Br)cc2)CC1	< 6.00
O=C(N1CCCCC1)N1CC(OCc2ccc(Br)cc2)C1	7.00 to 8.00
